experiment: NOVARTIS: Cytotoxicity against human hepatocellular carcinoma cell line (Huh7); type: toxicity, cell-based, Huh-7; conditions: Huh7 cells (hepatocellular carcinoma cell line)
CC50 overview

Compound | CC50
N#C/C(=C\c1cc2ccccc2nc1Cl)c1nc(-c2ccc(Cl)c(Cl)c2)cs1 | > 10 µM
CCCCCCC(=O)Oc1ccccc1-c1nc2cc(C)ccn2c1NC(C)(C)CC(C)(C)C | > 10 µM
O=C1NCCCCC1N(Cc1cccc(Oc2ccccc2)c1)C(=O)c1ccc(F)cc1 (configuration not stated) | > 10 µM
CCCOC(=O)C1=C(C)NC2=C(C(=O)CC(c3ccc(OC)c(OC)c3)C2)C1c1cccc([N+](=O)[O-])c1 (configuration not stated) | > 62.4 µM
O=C(CCn1c(=S)oc2ccccc21)N1CCN(c2ccccc2)CC1 | > 10 µM
CCOC(=O)N1CCN(C(=O)c2cnc3ccc(C)cn3c2=O)CC1 | > 10 µM
COc1ccccc1/C=C/CN(CCN1CCN(S(=O)(=O)c2cccc(C(F)(F)F)c2)CC1)C(=O)Cc1ccccc1 | > 10 µM
OC(CN1CCOCC1)Cn1cnc2c(SCc3ccccc3)ncnc21 (configuration not stated) | > 100 µM
CCn1c(SCc2ccc([N+](=O)[O-])cc2)nc2sc3c(c2c1=O)CCN(C)C3 | > 100 µM
O=C(c1ccc(Cl)cc1Cl)N1CCCC(C(F)(F)F)C1 (configuration not stated) | > 100 µM
Cc1cc(Nc2ccc(Br)c(C)c2)n2nc(C)nc2n1 | > 100 µM
Cc1ccc(COc2ccc3c(C#N)c4ccccn4c3c2)cc1 | > 100 µM
COCCN(CC(O)CNC(=O)c1ccc2ccccc2n1)S(=O)(=O)c1c(C)noc1C (configuration not stated) | > 10 µM
Cc1ccc(S(=O)(=O)N=C(NS(=O)(=O)c2ccc(C)cc2)c2ccccc2)cc1 | > 100 µM
O=C1CC(N2CCCCCC2)C(=O)N1c1ccc(N2C(=O)CC(N3CCCCCC3)C2=O)cc1 (configuration not stated) | > 10 µM
CCCCS(=O)(=O)N(C)CCCNc1ccnc2cc(Cl)ccc12 | > 10 µM
N#Cc1c(N)nc2sc(C(=O)c3ccc(F)cc3)c(N)c2c1-c1ccccc1 | > 10 µM
CC(c1nc2ccccc2c(=O)n1C)N1CCN(C(=O)C(C)(C)C)CC1 (configuration not stated) | > 10 µM
Cc1ccc(-c2c[n+](CC(=O)c3ccccc3Cl)c3n2CCC3)cc1 | > 95.9 µM
Cc1ccc(C(=O)NCCNC(=O)CN2CCOCC2)cc1 | > 10 µM
COc1ccccc1-n1c(=O)c2c3c(sc2n2c(C)nnc12)CCC3 | > 10 µM
CCC(c1nc2ccccc2c(=O)n1CCOC)N1CCNCC1 (configuration not stated) | > 10 µM
Cc1n(N)c2ccccc2[n+]1CC(=O)c1ccccc1 | > 100 µM
CCC(CC)=NNC(=O)C(=O)NC1CCCCC1 | > 10 µM
COc1ccccc1Nc1nc(NCC2CCCO2)c2ccccc2n1 (configuration not stated) | 29.4 µM
CC(C)N(C)Cc1cc(-c2nc3ccccc3s2)ccc1O | > 100 µM
CCN(CC)CCCC(C)Nc1ccnc2ccc([N+](=O)[O-])cc12 (configuration not stated) | > 10 µM
C=CCn1c(=N)n(CC(O)c2ccc(Cl)c(Cl)c2)c2ccccc21 (configuration not stated) | 14.7 µM
O=C(/C=C/c1ccccc1)Nc1ccccc1C(=O)Nc1ccc(-c2nc3ccc(NC(=O)c4ccccc4NC(=O)/C=C/c4ccccc4)cc3[nH]2)cc1 | > 13.3 µM
CC[n+]1c(/C=C/C=C2\N(C)c3ccccc3C2(C)C)n(-c2ccccc2)c2cc(Cl)ccc21 | 1.69 µM
Nc1nc(N)c2nc(CCc3ccc(C(=O)N[C@H](CCC(=O)O)C(=O)O)cc3)cnc2n1 | 0.0081 µM
COc1ccc(C=CC(=O)Nc2ccncc2)cc1OC | > 100 µM
COc1cc(/C=C(\C#N)c2nc3ccccc3[nH]2)ccc1OCc1ccccc1 | > 10 µM
COc1ccc(CNc2cc(-c3ccc(F)c(F)c3)nc3ccnn23)cc1 | > 100 µM
COc1cc(NC(=O)C=Cc2ccccc2Cl)cc(OC)c1OC | 47.8 µM
CC1=C2C(=O)c3ccccc3C2NC(=O)N1 (configuration not stated) | > 100 µM
COc1ccc(C2CC(=O)C3=C(C2)NC(C)=C(C(=O)OC2CCCCC2)C3c2ccc([N+](=O)[O-])cc2)cc1OC (configuration not stated) | > 100 µM
CC(C)OCCCNc1sc(S(=O)(=O)c2ccccc2)nc1S(=O)(=O)c1ccc(Cl)cc1 | > 100 µM
CCCCCN(C(=O)COCc1ccccc1)C(CC)c1nc2ccccc2c(=O)n1-c1cccc(Cl)c1 (configuration not stated) | > 10 µM
CCCC(=O)N(CCCC(C)Nc1cc(OC)cc2cccnc12)Cc1ccc(F)cc1 (configuration not stated) | > 10 µM
Cc1cccc(N(C)c2nc3ccccc3c3nnc(C)n23)c1 | > 100 µM
CCOC(=O)C(=O)N1c2ccc(OC)cc2-c2c(ssc2=S)C1(C)C | > 100 µM

The measurements presented in this section are drawn from ChEMBL document CHEMBL1156829.
